experimental.details: Cell viability (neutral red) on the replicon system
Format: cell-based
applied.conditions: human, Huh7 cells harbouring the subgenomic HCV replicon BM4-5, neutral red test, drug renewed daily for three days, read-out: CC50, cytotoxicity on Replicon System
# Lookup of reported CC50 at 3 days keyed by entry

Any idea what CC50 at 3 days was measured for O=c1[nH]c(=O)n([C@@H]2O[C@H](CO)[C@@H](O)[C@H]2O)cc1/C(I)=C\I [Compound 14b, (E)-5-(1,2-Diiodovinyl)-uridine] ? > 250 µM

Please report the recorded CC50 at 3 days for O=c1[nH]c(=O)n([C@@H]2O[C@H](CO)C[C@H]2O)cc1C#CI [Compound 12c, 5-(2-Iodoethynyl)-3′-deoxyuridine] . > 200 µM

Looking for the measured CC50 at 3 days of O=c1[nH]c(=O)n([C@H]2C[C@H](O)[C@@H](CO)O2)cc1/C(I)=C\I [Compound 14a, (E)-5-(1,2-Diiodovinyl)-2′-deoxyuridine] , can you help? 76.7 µM

Return reported CC50 at 3 days; argument: O=c1[nH]c(=O)n([C@@H]2O[C@H](CO)[C@@H](O)[C@H]2O)cc1C#CBr [Compound 13b, 5-(2-bromoethynyl)-uridine] 188 µM

Given O=c1[nH]c(=O)n([C@@H]2O[C@H](CO)[C@@H](O)[C@H]2O)cc1/C(Br)=C\Br [Compound 17b, (E)-5-(1,2-Dibromovinyl)-uridine] , state its recorded CC50 at 3 days. > 200 µM

Please report the recorded CC50 at 3 days for O=c1[nH]c(=O)n([C@@H]2O[C@H](CO)[C@@H](O)[C@H]2O)cc1/C(Br)=C\I [Compound 15b, (E)-5-(1-Bromo-2-iodovinyl)-uridine] . > 100 µM

Name the recorded CC50 at 3 days for COc1c(C)c2c(c(O)c1C/C=C(\C)CCC(=O)O)C(=O)OC2 [MPA, mycophenolic acid, reference compound] . 7 µM

# CC50 at 3 days lookup, item O=c1[nH]c(=O)n([C@@H]2O[C@H](CO)C[C@H]2O)cc1/C(Br)=C\Br [Compound 17c, (E)-5-(1,2-Dibromovinyl)-3′-deoxyuridine] > 200 µM

Fill in: CC50 at 3 days of O=c1[nH]c(=O)n([C@@H]2O[C@H](CO)C[C@H]2O)cc1C#CBr [Compound 13c, 5-(2-Bromoethynyl)-3′-deoxyuridine] is ___ > 300 µM

Suppose we examine the molecule O=c1[nH]c(=O)n([C@@H]2O[C@H](CO)C[C@H]2O)cc1/C(I)=C\I [Compound 14c, (E)-5-(1,2-Diiodovinyl)-3′-deoxyuridine] ; what CC50 at 3 days value has been reported? > 200 µM

***
Item NC(=O)c1ncn([C@@H]2O[C@H](CO)[C@@H](O)[C@H]2O)n1 [Ribavirin, reference compound] has what recorded CC50 at 3 days? 110 µM

I have this molecule here, O=c1[nH]c(=O)n([C@H]2C[C@H](O)[C@@H](CO)O2)cc1C#CI [Compound 12a, 5-(2-Iodoethynyl)-2′-deoxyuridine] , and I need its recorded CC50 at 3 days. > 182 µM

###

experimental.details: Cytotoxicity against CEM cells
Assay type: cell-based
applied.conditions: human
measured.metric: CC50 (µM)
Dear colleague, please return just the value in µM, with no unit written.

Solved entries:
Which CC50 is listed for O=c1[nH]c(=O)n([C@@H]2O[C@H](CO)[C@@H](O)[C@H]2O)cc1/C(I)=C\I [Compound 14b, (E)-5-(1,2-Diiodovinyl)-uridine] ? 41.7

Bench note: what CC50 did O=c1[nH]c(=O)n([C@H]2C[C@H](O)[C@@H](CO)O2)cc1C#CI [Compound 12a, 5-(2-Iodoethynyl)-2′-deoxyuridine] show? 15.8

# query: CC50 of entry O=c1[nH]c(=O)n([C@H]2C[C@H](O)[C@@H](CO)O2)cc1/C(Br)=C\I [Compound 15a] 0.13

Okay, now this compound:
Give its CC50 value. Item: O=c1[nH]c(=O)n([C@H]2C[C@H](O)[C@@H](CO)O2)cc1/C(I)=C\I [Compound 14a, (E)-5-(1,2-Diiodovinyl)-2′-deoxyuridine] 19.5
